Assay Summary: ATG_Oct_MLP_CIS: Attagene CIS-FACTORIAL HepG2 Assay for human Octamer-Binding Transcription Factor (Oct) (AID 2282993)
Particulars: HepG2 Attagene cis-factorial Oct reporter, mRNA; actives raise or lower the signal
Activity calls are given as the source filed them. How the source made its calls: active means hit-call score of the fitted dose curve at least 0.9, where 1 is the maximum; inactive means score below 0.9.
Field 'call' accepts TRUE (active), FALSE (inactive)

For COC(F)(C(F)(F)C(F)(F)F)C(F)(C(F)(F)F)C(F)(F)F (centres undefined) , what call appears in the results of this test? FALSE

For Cc1cccc(OP(=O)(Oc2cccc(C)c2)Oc2cccc(C)c2)c1 , what call appears in the results of this test? FALSE

For Oc1c(Br)cc(Br)cc1Br , what call appears in the results of this test? TRUE

* * *

Read-out: Insulin Like Growth Factor 1 (IGF1), IGF1 (gene 3479)
Assay Summary: LTEA_HepaRG_IGF1: Life Technologies and Expression Analysis (LTEA) Assay for Insulin Like Growth Factor 1 (IGF1) using HepaRG (AID 2283506)
Particulars: mRNA level, 48 h; actives raise or lower the signal
The source made the active and inactive calls. How the source made its calls: active means hit-call score of the fitted dose curve at least 0.9, where 1 is the maximum; inactive means score below 0.9.
Field 'call' accepts YES = active, NO = inactive

# example entries with known answers
Cc1cc(C)cc(C)c1 | NO
O=C(O)C1(c2ccc3c(c2)OC[C@H](Cc2ccc(-c4ccccc4)cc2)[C@H]3O)CCCC1 | YES
COc1ccccc1N | NO
Clc1cccc(Cl)c1 | NO
N#Cc1cccnc1 | NO

# ---- query compound ----
For O=C(N[C@H]1CN2CCC1CC2)c1ccc2c(c1)OCCO2 , what call appears in the results of this test? NO

* * *

Tested On: Myc proto-oncogene protein (Homo sapiens)
Assay Summary: ATG_Myc_CIS: Attagene CIS-FACTORIAL HepG2 Assay for human Myelocytomatosis (Myc) Proto-Oncogene Transcription Factor (AID 2282990)
Particulars: HepG2, Attagene cis-reporter transcription factor activity; actives raise or lower the signal
Activity calls are given as the source filed them. How the source made its calls: active means hit-call score of the fitted dose curve at least 0.9, where 1 is the maximum; inactive means score below 0.9.
Field 'call' accepts active, inactive

# example entries with known answers
O=[N+]([O-])c1cc([As](=O)(O)O)ccc1O | inactive
Oc1c(Br)cc(Br)cc1Br | inactive
Oc1cccc(-c2ccccc2)c1 | inactive
CCCCCCCCCCCCN(C)C | active
Cc1cc(C)cc(C)c1 | inactive
CC(C)O.CC(C)O.OCCN(CCO)CCO.OCCN(CCO)CCO.[Ti] | inactive

# ---- query molecule ----
For Cc1cc(-c2cc(C)c(N)c(C)c2)cc(C)c1N , what call appears in the results of this test? inactive

* * *

Assay Summary: ATG_NF_kB_CIS: Attagene CIS-FACTORIAL HepG2 Assay for human Nuclear Factor Kappa B (NF-kB) (AID 2282991)
Particulars: HepG2 Attagene cis-factorial NF-kB reporter mRNA; actives raise or lower the signal
Method: ATG_CIS is a cell-based, multiplexed-readout assay that uses HepG2, a human liver cell line, with measurements taken at 24 hours after chemical dosing in a 24-well plate.ATG_NF_kB_CIS is one of 52 assay component(s) measured or calculated from the ATG_CIS assay. […] This assay endpoint, ATG_NF_kB_CIS, was analyzed with bidirectional fitting relative to DMSO as the negative control and baseline of activity. […]
Active and inactive are the calls of the source. The calls were made as follows: active = hit-call score of the fitted dose curve at least 0.9, where 1 is the maximum; inactive = score below 0.9.
Field 'call' accepts 1 (yes) = active, 0 (no) = inactive

CN(C)CCN(C)C | 0 (no)
O=C(O)COc1ccc(Cl)cc1 | 0 (no)
ClCCN1CCOCC1 | 0 (no)
CCOC(=O)C(SP(=S)(OC)OC)c1ccccc1 (centres undefined) | 0 (no)
CCOP(=O)(OCC)SCCSCC | 0 (no)
OCCCCO | 0 (no)
OC(Cc1ccccc1Cl)(Cn1[nH]cnc1=S)C1(Cl)CC1 (centres undefined) | 0 (no)
OC(Cc1ccccc1Cl)(Cn1cncn1)C1(Cl)CC1 (centres undefined) | 0 (no)

For CCOP(=S)(OCC)O/N=C(\C#N)c1ccccc1 , what call appears in the results of this test? 0 (no)

For N#Cc1ccccc1Cl , what call appears in the results of this test? 0 (no)

* * *

Assay Summary: BSK_MyoF_SRB: Viability Assessment in the BioMAP Diversity Plus: MyoF Assay (AID 2284267);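 further: total protein by SRB absorbance in parallel cultures as cytotoxicity measure; cells assessed 24 h after compound addition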
Particulars: primary human lung fibroblasts
Activity calls are given as the source filed them. Rule for the calls: active = hit-call score of the fitted dose curve at least 0.9, where 1 is the maximum; inactive = score below 0.9.
Field 'call' accepts yes for active, no for inactive

# example entries with known answers
CCOP(=O)(OCC)OC(=CCl)c1ccc(Cl)cc1Cl | yes
Cc1cc(Cl)ccc1OC(C)C(=O)O (stereo not drawn) | no
Cc1ccccc1OP(=O)(Oc1ccccc1C)Oc1ccccc1C | yes
Nc1c(Oc2ccccc2)cc(O)c2c1C(=O)c1ccccc1C2=O | no
CCN(CC)C(=O)C(Cl)=C(C)OP(=O)(OC)OC | no

For Cc1ccc2nc3sc(=O)sc3nc2c1 , what call appears in the results of this test? no

For Cc1cc(Cl)ccc1N , what call appears in the results of this test? no

For Cc1cccc(OP(=O)(Oc2cccc(C)c2)Oc2cccc(C)c2)c1 , what call appears in the results of this test? no

For CCCCN(CCCC)C(=S)[S-].CCCCN(CCCC)C(=S)[S-].[Ni+2] , what call appears in the results of this test? no

For CCOP(=S)(OCC)OP(=S)(OCC)OCC , what call appears in the results of this test? no

* * *

Read-out: Monocyte Chemoattractant Protein-1 (MCP1), CCL2 (gene 6347)
Assay Summary: BSK_3C_MCP1: BioMAP Diversity Plus: 3C Assay for Monocyte Chemoattractant Protein-1 (MCP1) Biomarker Activity (AID 2283017)
Particulars: primary human endothelial cells (HUVEC); actives raise or lower the signal
Active and inactive are the calls of the source. How the source made its calls: active means hit-call score of the fitted dose curve at least 0.9, where 1 is the maximum; inactive means score below 0.9.
Field 'call' accepts YES = active, NO = inactive

# example entries with known answers
CN(C)C(=S)S | NO
Cc1ccc(OP(=O)(Oc2ccc(C)cc2C)Oc2ccc(C)cc2C)c(C)c1 | YES
CC(C)=CC1C(C(=O)OCc2cccc(Oc3ccccc3)c2)C1(C)C (stereo not given) | NO
CCCCCCCCCCCCN(C)C | NO

For O=C1C=CC(=O)c2ccccc21 , what call appears in the results of this test? YES

For OC(Cc1ccccc1Cl)(Cn1cncn1)C1(Cl)CC1 (stereo not given) , what call appears in the results of this test? NO

For CC(C)O.CC(C)O.OCCN(CCO)CCO.OCCN(CCO)CCO.[Ti] , what call appears in the results of this test? NO

For CCCCOC(=O)COC(=O)c1ccccc1C(=O)OCCCC , what call appears in the results of this test? NO

For Nc1ccc(N)cc1 , what call appears in the results of this test? NO

For CCOP(=S)(OCC)OP(=S)(OCC)OCC , what call appears in the results of this test? YES

For N#CCCC(Br)(C#N)CBr (stereo not given) , what call appears in the results of this test? YES

For CC1(C)[C@H](C(=O)O[C@H](C#N)c2cccc(Oc3ccccc3)c2)[C@@H]1/C=C(\Cl)C(F)(F)F , what call appears in the results of this test? NO

For Cc1cc(Cl)ccc1OC(C)C(=O)O (stereo not given) , what call appears in the results of this test? NO

For Nc1c(Oc2ccccc2)cc(O)c2c1C(=O)c1ccccc1C2=O , what call appears in the results of this test? NO

For O=C(CCl)NCO , what call appears in the results of this test? NO

For Oc1ccc(Cc2ccc(O)cc2)cc1 , what call appears in the results of this test? NO

For Cc1cc(C)cc(C)c1 , what call appears in the results of this test? NO

For Cc1cc(C(C)(C)c2ccc(O)c(C)c2)ccc1O , what call appears in the results of this test? YES

For Cc1c([N+](=O)[O-])c(C)c([N+](=O)[O-])c(C(C)(C)C)c1[N+](=O)[O-] , what call appears in the results of this test? NO

* * *

Tested On: CCAAT/enhancer-binding protein beta (Homo sapiens)
Assay Summary: ATG_C_EBP_CIS: Attagene CIS-FACTORIAL HepG2 Assay for human CCAAT/Enhancer Binding Protein (C/EBP) beta (AID 2282927)
Particulars: HepG2 Attagene cis-factorial transcription factor reporter; actives raise or lower the signal
Active and inactive are the calls of the source. The calls were made as follows: active = hit-call score of the fitted dose curve at least 0.9, where 1 is the maximum; inactive = score below 0.9.
Field 'call' accepts active, inactive

CN(C)C(=S)S | inactive

For CC(C)O.CC(C)O.OCCN(CCO)CCO.OCCN(CCO)CCO.[Ti] , what call appears in the results of this test? inactive

For OC[C@@H](O)[C@H]1O[C@@H]2O[C@H](C(Cl)(Cl)Cl)O[C@@H]2[C@H]1O , what call appears in the results of this test? inactive

For Clc1ccc(C(Cl)(Cl)Cl)cn1 , what call appears in the results of this test? inactive

For O=CCCl , what call appears in the results of this test? active

For CCCCS(=O)(=O)Cl , what call appears in the results of this test? inactive

For O=NN1CCCCCCC1 , what call appears in the results of this test? inactive

For O=C1C=CC(=O)c2ccccc21 , what call appears in the results of this test? inactive

For C=C(C)[C@@H]1CC=C(C=O)CC1 , what call appears in the results of this test? inactive

For CCC[N+](CCC)(CCC)CCC , what call appears in the results of this test? inactive

For CCOP(=S)(OCC)OP(=S)(OCC)OCC , what call appears in the results of this test? inactive

For CNC(=O)CSP(=O)(OC)OC , what call appears in the results of this test? inactive

For Nc1ccc(-c2ccccc2)cc1 , what call appears in the results of this test? inactive

Data provenance is PubChem BioAssay (EPA / NIEHS).
